- assayed target: S1P1 (Homo sapiens, UniProt P21453)
- Sequence (P21453 whole entry): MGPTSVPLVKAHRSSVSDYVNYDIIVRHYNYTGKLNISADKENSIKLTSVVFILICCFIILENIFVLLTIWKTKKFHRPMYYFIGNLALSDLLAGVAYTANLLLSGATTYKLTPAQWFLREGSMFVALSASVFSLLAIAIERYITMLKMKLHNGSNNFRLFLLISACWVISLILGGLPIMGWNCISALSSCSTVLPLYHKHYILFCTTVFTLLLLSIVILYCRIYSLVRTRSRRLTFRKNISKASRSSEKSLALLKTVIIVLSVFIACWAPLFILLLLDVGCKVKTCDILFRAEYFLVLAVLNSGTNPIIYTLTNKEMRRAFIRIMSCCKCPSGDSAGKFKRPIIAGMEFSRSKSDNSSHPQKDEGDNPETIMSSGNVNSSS
- assay protocol: cAMP assay
- Format: cell-based
- experimental setup: read-out: ECK, cAMP
pEC50: −log10 of the molar value.

compound | pEC50
O=C(O)C[C@H]1CCc2c1[nH]c1ccc(OCc3ccc(C4CCCC4)c(C(F)(F)F)c3)cc21 [Compound 1] | 10.03

---

- assayed target: S1P1 (Homo sapiens, UniProt P21453)
- assay protocol: β-arrestin assay S1P1
- Format: cell-based
readout type: EC50 (nM)

entry smiles | readout type | reported result
O=C(O)C[C@H]1CCc2c1[nH]c1ccc(OCc3ccc(C4CCCC4)c(C(F)(F)F)c3)cc21 | EC50 | 6.1

---

- assayed target: S1P3 (Homo sapiens, UniProt Q99500)
- Sequence (Q99500 whole entry): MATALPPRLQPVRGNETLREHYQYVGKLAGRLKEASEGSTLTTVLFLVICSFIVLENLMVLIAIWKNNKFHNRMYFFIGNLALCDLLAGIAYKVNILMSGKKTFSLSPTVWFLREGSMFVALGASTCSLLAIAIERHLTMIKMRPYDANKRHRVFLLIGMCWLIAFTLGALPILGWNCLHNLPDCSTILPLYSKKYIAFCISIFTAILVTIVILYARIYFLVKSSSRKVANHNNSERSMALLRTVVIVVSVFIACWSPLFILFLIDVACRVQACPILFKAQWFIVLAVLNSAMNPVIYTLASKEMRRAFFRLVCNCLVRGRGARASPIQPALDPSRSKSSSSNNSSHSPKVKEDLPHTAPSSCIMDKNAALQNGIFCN
- assay protocol: β-arrestin assay S1P3
pEC50: −log10 of the molar value.

entry smiles | assayed target | pEC50
O=C(O)C[C@H]1CCc2c1[nH]c1ccc(OCc3ccc(C4CCCC4)c(C(F)(F)F)c3)cc21 | S1P3 (Homo sapiens, UniProt Q99500) | < 5.00

---

- assayed target: S1P2 (Homo sapiens, UniProt O95136)
- Sequence (O95136 whole entry): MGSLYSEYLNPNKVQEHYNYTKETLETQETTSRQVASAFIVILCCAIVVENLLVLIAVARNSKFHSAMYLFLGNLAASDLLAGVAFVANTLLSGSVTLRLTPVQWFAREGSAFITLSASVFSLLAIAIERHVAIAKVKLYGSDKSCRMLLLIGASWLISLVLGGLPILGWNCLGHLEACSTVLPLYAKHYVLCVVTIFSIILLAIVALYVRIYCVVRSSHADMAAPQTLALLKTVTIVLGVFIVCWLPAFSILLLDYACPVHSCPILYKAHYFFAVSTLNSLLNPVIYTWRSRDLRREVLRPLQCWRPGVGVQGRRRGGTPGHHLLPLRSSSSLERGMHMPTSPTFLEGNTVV
- assay protocol: β-arrestin assay S1P2

entry smiles | EC50
O=C(O)C[C@H]1CCc2c1[nH]c1ccc(OCc3ccc(C4CCCC4)c(C(F)(F)F)c3)cc21 | > 10 µM
